Collected pIC50 values appear next to each entry.
- measured_target: NRAS Q61R (Homo sapiens (Human), UniProt P01111+P62937, Q61R)
- Sequence (P01111 whole entry Q61R, one chain of several): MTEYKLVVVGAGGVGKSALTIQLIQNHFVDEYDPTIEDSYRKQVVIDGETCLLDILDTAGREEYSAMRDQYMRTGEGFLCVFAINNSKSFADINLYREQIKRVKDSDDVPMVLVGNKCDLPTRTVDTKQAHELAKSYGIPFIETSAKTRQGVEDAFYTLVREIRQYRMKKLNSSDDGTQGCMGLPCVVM
- experiment: Ras-Raf (BRAF RBD) disruption / FRET / MOA assay, NRAS Q61R
- Type: biochemical
- experimental_setup: NRAS Q61R; Ras-Raf disruption/FRET/MOA assay; read-out: IC50* NRAS Q61R FRET data
pIC50: −log10 of the molar value.

Please review the entries below; each comes with its answer.
>>> value_measured("C=CC(=O)N1CC[C@H](C(=O)N(C)[C@H](C(=O)N[C@H]2Cc3cc(O)cc(c3)-c3ccc4c(c3)c(c(-c3cc(C)ccc3[C@H](C)OC)n4CC)CC(C)(C)COC(=O)[C@@H]3CCCN(N3)C2=O)C(C)C)C1 (atropisomer, axis not shown) [Example A167]")
"6.00 to 7.00"
>>> value_measured("CCn1c(-c2cccnc2[C@H](C)OC)c2c3cc(ccc31)-c1csc(n1)C[C@H](NC(=O)C[C@@H](C)OC1CN(C(=O)C#CC(C)(C)N(C)C)C1)C(=O)N1CCC[C@H](N1)C(=O)OCC(C)(C)C2 (atropisomer, axis not shown) [Example A638]")
"5.00 to 6.00"
>>> value_measured("C=CC(=O)N1CC2(CCN2C(=O)N(C)[C@H](C(=O)N[C@H]2Cc3nc(n(C)n3)-c3ccc4c(c3)c(c(-c3cccnc3[C@H](C)OC)n4CC)CC(C)(C)COC(=O)[C@@H]3CCCN(N3)C2=O)C(C)C)C1 (atropisomer, axis not shown) [Example A612]")
"7.00 to 8.00"

Alright, here's another compound for you.
Observed pIC50 on NRAS Q61R (Homo sapiens (Human), UniProt P01111+P62937, Q61R) for C=CC(=O)N(C)C[C@H]1CCN1C(=O)N(C)[C@H](C(=O)N[C@H]1Cc2nc(cs2)-c2ccc3c(c2)c(c(-c2cccnc2[C@H](C)OC)n3CC)CC(C)(C)COC(=O)[C@@H]2CCCN(N2)C1=O)C(C)C (atropisomer, axis not shown) [Example A369] , please. 6.00 to 7.00

###

- measured_target: NRAS G12C (Homo sapiens (Human), UniProt P01111+P62937, G12C)
- Sequence (P01111 whole entry G12C, one chain of several): as the sequence (P01111 whole entry Q61R, one chain of several) above, with G12C, R61Q counted along it
- experiment: Ras-Raf (BRAF RBD) disruption / FRET / MOA assay, NRAS G12C
- Type: biochemical
- experimental_setup: read-out: IC50* NRAS G12C FRET data
pIC50: −log10 of the molar value.
property: pIC50

Guide cases for pIC50, answers given:
>>> value_measured("C=CC(=O)N1CC[C@H](C(=O)N(C)[C@H](C(=O)N[C@H]2Cc3cc(O)cc(c3)-c3ccc4c(c3)c(c(-c3cccnc3)n4[C@H](C)C#N)CC(C)(C)COC(=O)[C@@H]3CCCN(N3)C2=O)C(C)C)C1")
"6.00 to 7.00"
>>> value_measured("C=CC(=O)N1CC[C@@]2(CCN2C(=O)N(C)[C@H](C(=O)N[C@H]2Cc3nc(cs3)-c3ccc4c(c3)c(c(-c3cccnc3[C@H](C)OC)n4CC)CC(C)(C)COC(=O)[C@@H]3CCCN(N3)C2=O)C(C)C)C1 (atropisomer, axis not shown)")
"7.00 to 8.00"
>>> value_measured("C=CC(=O)N1C[C@@H](C)[C@H](N(C)C(=O)N(C)[C@H](C(=O)N[C@H]2Cc3nc(cs3)-c3ccc4c(c3)c(c(-c3cccnc3[C@H](C)OC)n4CC)CC(C)(C)COC(=O)[C@@H]3CCCN(N3)C2=O)C(C)C)C1 (atropisomer, axis not shown)")
"6.00 to 7.00"
>>> value_measured("C=CC(=O)N(C)[C@H]1CN(C(=O)N(C)[C@H](C(=O)N[C@H]2Cc3nc(cs3)-c3ccc4c(c3)c(c(-c3cccnc3[C@H](C)OC)n4CC)CC(C)(C)COC(=O)[C@@H]3CCCN(N3)C2=O)C(C)C)C[C@@H]1F (atropisomer, axis not shown)")
"7.00 to 8.00"
>>> value_measured("C=CC(=O)N(C)CCN1CCN(C(=O)N(C)[C@H](C(=O)N[C@H]2Cc3cccc(c3)-c3ccc4c(c3)c(c(-c3cccnc3[C@H](C)OC)n4CC)CC(C)(C)COC(=O)[C@@H]3CCCN(N3)C2=O)C(C)C)C[C@H]1C (atropisomer, axis not shown)")
"6.00 to 7.00"

Which pIC50 reading was recorded for the compound C=C(OC)C(=O)N1CC2(CCN(C(=O)N(C)[C@H](C(=O)N[C@H]3Cc4nc(cs4)-c4ccc5c(c4)c(c(-c4cccnc4[C@H](C)OC)n5CC)CC(C)(C)COC(=O)[C@@H]4CCCN(N4)C3=O)C(C)C)CC2)C1 (atropisomer, axis not shown) ? 7.00 to 8.00

Suppose we examine the compound C=CC(=O)N1C2CC1CN(C(=O)N(C)[C@H](C(=O)N[C@H]1Cc3nc(cs3)-c3ccc4c(c3)c(c(-c3cccnc3[C@H](C)OC)n4CC)CC(C)(C)COC(=O)[C@@H]3CCCN(N3)C1=O)C(C)C)C2 ; what pIC50 value has been reported? 6.00 to 7.00

Given the entry C=CC(=O)N1CCN(C(=O)N(C)[C@H](C(=O)N[C@H]2Cc3nc(cs3)-c3ccc4c(c3)c(c(-c3cccnc3[C@H](C)OC)n4CC)CC(C)(C)COC(=O)[C@@H]3CCCN(N3)C2=O)C(C)C)[C@@H](C)C1 (atropisomer, axis not shown) , report its measured pIC50. 7.00 to 8.00

###

Recorded pIC50 by entry
- measured_target: KRAS G12V (Homo sapiens (Human), UniProt P01116+P62937, G12V)
- Sequence (P01116-2 other isoform, or with tags, fused parts or gaps G12V, one chain of several): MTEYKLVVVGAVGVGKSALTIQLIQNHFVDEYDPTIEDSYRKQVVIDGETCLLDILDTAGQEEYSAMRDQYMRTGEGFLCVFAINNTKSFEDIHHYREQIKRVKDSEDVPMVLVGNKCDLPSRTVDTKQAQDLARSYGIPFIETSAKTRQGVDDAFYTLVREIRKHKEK
- experiment: Ras-Raf (BRAF RBD) disruption / FRET / MOA assay, KRAS G12V
- Type: biochemical
- experimental_setup: read-out: IC50* KRAS G12V FRET data
pIC50: −log10 of the molar value.

>>> value_measured("CCn1c(-c2cccnc2[C@H](C)OC)c2c3cc(ccc31)-c1cc(O)cc(c1)C[C@H](NC(=O)[C@H](C(C)C)N(C)C(=O)C1CN(C(=O)/C=C/CN(C)C)C1)C(=O)N1CCC[C@H](N1)C(=O)OCC(C)(C)C2 (atropisomer, axis not shown)")
"6.00 to 7.00"

Would you mind telling me what pIC50 value was observed for C=CC(=O)N1CCO[C@H]2CN(C(=O)N(C)[C@H](C(=O)N[C@H]3Cc4cccc(n4)-c4ccc5c(c4)c(c(-c4cccnc4[C@H](C)OC)n5CC(F)(F)F)CC(C)(C)COC(=O)[C@@H]4CCCN(N4)C3=O)C(C)C)C[C@H]21 (atropisomer, axis not shown) ? 5.00 to 6.00

###

- measured_target: K-Ras G13C (Homo sapiens (Human), UniProt P01116+P62937, G13C)
- Sequence (P01116-2 other isoform, or with tags, fused parts or gaps G13C): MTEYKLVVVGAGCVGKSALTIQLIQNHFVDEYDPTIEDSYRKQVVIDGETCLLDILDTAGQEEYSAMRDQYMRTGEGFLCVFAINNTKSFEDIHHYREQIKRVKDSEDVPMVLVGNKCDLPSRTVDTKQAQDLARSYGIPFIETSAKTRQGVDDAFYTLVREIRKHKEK
- Sequence (P62937 whole entry): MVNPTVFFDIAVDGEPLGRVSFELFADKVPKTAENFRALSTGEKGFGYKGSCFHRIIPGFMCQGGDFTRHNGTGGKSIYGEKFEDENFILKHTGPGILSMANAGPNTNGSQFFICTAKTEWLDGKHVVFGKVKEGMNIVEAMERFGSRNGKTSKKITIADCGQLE
- experiment: Ras-Raf (BRAF RBD) disruption / FRET / MOA assay, KRAS G13C
- Assay type: biochemical
- experimental_setup: KRAS G13C; Ras-Raf disruption/FRET/MOA assay; read-out: IC50* KRAS G13C FRET data
pIC50: −log10 of the molar value.
We begin with a simple list: items and their reported pIC50.

>>> value_measured("CO[C@@H](C)c1ncccc1-c1c2c3cc(ccc3n1C)-c1cccc(c1)C[C@H](NC(=O)[C@H](C(C)C)N(C)C(=O)[C@H]1CCN(C(=O)C#CCN3CCOCC3)C1)C(=O)N1CCC[C@H](N1)C(=O)OCC(C)(C)C2 (atropisomer, axis not shown) [Example A192]")
"< 5.00"

Below: the item to evaluate.
Given the entry C=CC(=O)N1CC[C@H](C(=O)N(C)[C@@H](C(=O)N[C@H]2Cc3cc(O)cc(c3)-c3ccc4c(c3)c(c(-c3cccc(CN(C)C)c3)n4CC)CC(C)(C)COC(=O)[C@@H]3CCCN(N3)C2=O)C(C)C)C1 [Example A106] , what pIC50 was observed with K-Ras G13C (Homo sapiens (Human), UniProt P01116+P62937, G13C)? < 5.00

###

We begin with a simple list: items and their reported pIC50.
- measured_target: KRAS WT (Homo sapiens (Human), UniProt P01116+P62937)
- Sequence (P01116-2 other isoform, or with tags, fused parts or gaps, one chain of several): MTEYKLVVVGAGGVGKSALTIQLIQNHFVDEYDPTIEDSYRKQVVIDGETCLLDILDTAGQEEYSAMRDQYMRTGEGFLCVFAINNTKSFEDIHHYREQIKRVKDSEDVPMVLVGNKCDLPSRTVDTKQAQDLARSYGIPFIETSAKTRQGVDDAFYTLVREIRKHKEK
- experiment: Ras-Raf (BRAF RBD) disruption / FRET / MOA assay, KRAS WT
- Type: biochemical
- experimental_setup: read-out: IC50* KRAS WT FRET data
pIC50: −log10 of the molar value.

Find the recorded pIC50 belonging to C=CC(=O)N(C)C[C@@H]1CCN1C(=O)N(C)[C@H](C(=O)N[C@H]1Cc2nc(cs2)-c2ccc3c(c2)c(c(-c2cccnc2[C@H](C)OC)n3CC)CC(C)(C)COC(=O)[C@@H]2CCCN(N2)C1=O)C(C)C (atropisomer, axis not shown) [Example A390] and report it. 5.00 to 6.00

###

The compounds listed here are annotated with their IC50.
- measured_target: NRAS Q61R (Homo sapiens (Human), UniProt P01111+P62937, Q61R)
- experiment: Ras-Raf (BRAF RBD) disruption / FRET / MOA assay, NRAS Q61R
- Format: biochemical
- experimental_setup: NRAS Q61R; Ras-Raf disruption/FRET/MOA assay; read-out: IC50* NRAS Q61R FRET data

In the examples that follow, each entry is paired with its recorded IC50.
>>> value_measured("C=CC(=O)N1CCO[C@H]2CN(C(=O)N(C)[C@H](C(=O)N[C@H]3Cc4nc(n(C)n4)-c4ccc5c(c4)c(c(-c4cccnc4[C@H](C)OC)n5CC(F)(F)F)CC(C)(C)COC(=O)[C@@H]4CCCN(N4)C3=O)C(C)C)C[C@H]21 (atropisomer, axis not shown)")
"100 to 1000 nM"
>>> value_measured("CCn1c(-c2cccnc2[C@H](C)OC)c2c3cc(ccc31)-c1cccc(c1)C[C@H](NC(=O)[C@H](C(C)C)N(C)C(=O)C1(F)CCN(C(=O)/C=C/CN(C)C)CC1)C(=O)N1CCC[C@H](N1)C(=O)OCC(C)(C)C2 (atropisomer, axis not shown)")
"100 to 1000 nM"
>>> value_measured("C=CC(=O)N1CC[C@H](C(=O)N(C)[C@H](C(=O)N[C@H]2Cc3cccc(c3)-c3ccc4c(c3)c(c(-c3cccnc3[C@H](C)OC)n4CC(F)F)CC(C)(C)COC(=O)[C@@H]3CCCN(N3)C2=O)C(C)C)C1 (atropisomer, axis not shown)")
"1000 to 10000 nM"

# context switch: different compound, same IC50
I am curious: what IC50 value has been reported for CC#CC(=O)N1CC[C@H](C(=O)N(C)[C@H](C(=O)N[C@H]2Cc3cccc(c3)-c3ccc4c(c3)c(c(-c3cccnc3[C@H](C)OC)n4C#N)CC(C)(C)COC(=O)[C@@H]3CCCN(N3)C2=O)C(C)C)C1 (atropisomer, axis not shown) ? > 10000 nM
